Documented melting point across a set of compounds

Examples with answers:
smi	reported_metric	obs_value
COC(=O)c1ccc(CN([C@@H](C)c2ccccc2)S(=O)(=O)c2ccc(Cl)cc2)cc1	melting point	105 to 106 °C
COC(=O)c1ccc(CN([C@@H](C)c2ccc(Cl)cc2)S(=O)(=O)c2ccc(Cl)cc2)cc1	melting point	67 to 69 °C
CC[C@@H](c1ccccc1)N(Cc1ccc(C(=O)N2CCC[C@@H]2CO)cc1)S(=O)(=O)c1ccc(Cl)cc1	melting point	120 to 121 °C

From here, focus on the item given below.
Enquiry: melting point lookup needed for `CC[C@H](c1ccc(C(F)(F)F)cc1)N(Cc1ccc(C(=O)O)cc1)S(=O)(=O)c1ccc(Cl)cc1` , thanks.
Return: 105 to 107 °C
